Tested on: HS 578T breast
Experiment: NCI-60 one-dose screen, 48 h (100 = growth as untreated, 0 = no growth, -100 = all killed)
Details: 10 µM unless noted
Procedure: Growth inhibition of the HS 578T human tumor cell line is measured as a screen for anti-cancer activity. Cells are grown in 96 well plates and exposed to the test compound for 48 hours. Compounds are tested at a single concentration, which is 10^-5 M for most compounds. The reported endpoint is percent growth (GI% or GIPRCNT), where numbers from 0 - 100% represent growth inhibition, and numbers from -100% - 0 represent cell death. For example, a value of 40 represents 60% growth inhibition. […]
About 83,000 compounds went through this panel and 20% of them were active in at least one assay; those are over-represented in the sample as a whole.
endpoint: growth (%)

[[record]]
molecule = "CC1(C)CC[C@]2(c3nnc(-c4ccncc4)o3)CC[C@H]3C(=CC[C@H]4[C@@]3(C)CC[C@H]3C(C)(C)C(=O)CC[C@]43C)[C@@H]2C1"
endpoint = "growth"
quantitative_readout = 82.4

[[record]]
molecule = "Oc1c(Cl)cc(Cl)c2ccc(Cn3cc(-c4ccc(C(F)(F)F)cc4)nn3)nc12"
endpoint = "growth"
quantitative_readout = 87.7

[[record]]
molecule = "CC1(c2ccccc2O)NN=C(/N=C/c2cccc([N+](=O)[O-])c2)N1C(Cc1c[nH]c2ccccc12)C(=O)O (configuration not stated)"
endpoint = "growth"
quantitative_readout = 95.8

[[record]]
molecule = "CCOC(=O)C(=Cc1cccc(Cl)c1)C(=O)OCC"
endpoint = "growth"
quantitative_readout = 68

[[record]]
molecule = "Cc1ccc(-c2nc(/C=C3/C(=O)Nc4ccccc43)c3ccccn23)cc1"
endpoint = "growth"
quantitative_readout = 85.7

[[record]]
molecule = "O=C(COc1ccc(-c2nc3ccccc3[nH]2)cc1)N=Nc1c(O)[nH]c2ccc(Cl)cc12"
endpoint = "growth"
quantitative_readout = 72.4

[[record]]
molecule = "C=C(C)[C@@H]1CC[C@]2(C(=O)O)CC[C@]3(C)[C@H](CC[C@@H]4[C@@]5(C)C[C@@H](Cc6cn(CCO[C@@H]7O[C@H](COC(C)=O)[C@H](OC(C)=O)[C@H](OC(C)=O)[C@H]7OC(C)=O)nn6)[C@H](O)C(C)(C)[C@@H]5CC[C@]43C)[C@@H]12"
endpoint = "growth"
quantitative_readout = 51.9


---

Tested on: LOX IMVI melanoma
Experiment: NCI-60 one-dose screen, 48 h (100 = growth as untreated, 0 = no growth, -100 = all killed)
Conditions: 10 µM unless noted
The panel holds about 83,000 compounds, 20% with a hit somewhere; the sample as a whole holds those more often.
Measured growth values are reported for all entries that follow.
endpoint: growth (%)

[[record]]
compound = "O=C1/C(=C/c2ccc(-c3ccc(Br)cc3)o2)SC(=S)N1CCc1ccc(O)cc1"
quantitative_readout = 71.7

[[record]]
compound = "O=C1Nc2ccc(Br)cc2/C1=N/c1n[nH]c(=S)s1"
quantitative_readout = 90.3

[[record]]
compound = "Cc1ccc(-c2nn(-c3ccccc3)cc2C=C2C(=O)ON=C2C(C)C)cc1"
quantitative_readout = 2

[[record]]
compound = "O=C1Nc2ccccc2/C1=C\\c1nc(-c2ccccc2)n2ccccc12"
quantitative_readout = 84.6

[[record]]
compound = "CCN1C(=O)N(CC)C2C1NN=c1s/c(=C\\c3ccc(Cl)cc3Cl)c(=O)n12 (stereo not given)"
quantitative_readout = 18.3

[[record]]
compound = "COc1ccc(C(=S)N2CCN(c3ccccc3Cl)CC2)cc1OC"
quantitative_readout = 92.7

[[record]]
compound = "CCOP(=O)(OCC)c1nc(-c2ccccc2)oc1NCc1cccnc1"
quantitative_readout = 103

[[record]]
compound = "O=C1/C(=C/c2ccccc2Br)COc2ccc(O)c(O)c21"
quantitative_readout = -76

[[record]]
compound = "CCn1cc(C(=O)N/N=C/c2cccs2)c(=O)c2cc(F)c(N3CCNC(C)C3)c(F)c21 (stereo not given)"
quantitative_readout = -84.1

[[record]]
compound = "COc1ccc(-c2cc(-c3ccc(Cl)cc3)c(C#N)c(=O)n2CCCCC(=O)Nc2ccccc2N)cc1"
quantitative_readout = -60.9

